Numbers sourced from the RNAGym collection of RNA variant scans (doi:10.1021/acssynbio.7b00057).

B1: Pistol ribozyme (parent)
chain: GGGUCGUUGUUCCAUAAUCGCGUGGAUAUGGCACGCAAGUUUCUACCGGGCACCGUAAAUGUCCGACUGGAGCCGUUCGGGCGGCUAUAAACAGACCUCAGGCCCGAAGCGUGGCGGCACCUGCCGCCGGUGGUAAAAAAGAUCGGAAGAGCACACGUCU

# Variants of: B1
# assay_procedure: aptazyme ON/OFF ratio, guanine; higher = stronger switching; co-transcriptional cleavage with and without guanine
result_type: aptazyme ON/OFF ratio
Number, no unit, nothing else.

Record excerpt, results attached:
U7C U8A U11A C12A C13U = 1.26
U7A U8C G9U U10G U11A C12G C13G = 0.993
U7A U8G G9A U10C U11C C12G C13A = 1.11
U7C U8A G9A U10C U11C C12G = 1.09
U7C G9C U10A U11G C12A C13G = 1.03
U7G U8A U10A C12A C13A = 1.33

Kindly note the recorded aptazyme ON/OFF ratio for U7A G9C U10C U11C C12A C13U , which is 1.02

Briefly, aptazyme ON/OFF ratio measured for U8C G9U C12U C13U : 0.959

Entry U8A G9C U10G U11G C12A — recorded aptazyme ON/OFF ratio = 1.14
